Provenance of the data: ChEMBL document CHEMBL1135336

# assayed.system: UniProt Q9Y5N1
# Sequence (Q9Y5N1 whole entry): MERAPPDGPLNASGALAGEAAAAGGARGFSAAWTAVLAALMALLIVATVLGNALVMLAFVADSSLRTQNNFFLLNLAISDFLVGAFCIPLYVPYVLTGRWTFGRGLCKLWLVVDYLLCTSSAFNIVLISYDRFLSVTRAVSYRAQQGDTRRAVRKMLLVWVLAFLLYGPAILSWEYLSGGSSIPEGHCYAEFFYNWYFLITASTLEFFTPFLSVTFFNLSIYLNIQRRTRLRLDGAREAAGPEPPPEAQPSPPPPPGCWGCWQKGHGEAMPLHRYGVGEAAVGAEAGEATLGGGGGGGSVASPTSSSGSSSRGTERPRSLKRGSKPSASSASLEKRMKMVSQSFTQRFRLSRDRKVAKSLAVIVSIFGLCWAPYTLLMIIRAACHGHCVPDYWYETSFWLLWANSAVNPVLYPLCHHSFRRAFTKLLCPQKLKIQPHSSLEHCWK
# assay.details: In vitro inhibitory activity against Histamine H3 receptor at a concentration of 1 ug/mL
measurement.type: inhibition (%)

molecule: O=C(O)C1c2ccccc2-c2ccc(OCCN3CCCCC3)cc21 (configuration not stated)
assayed.system: UniProt Q9Y5N1
recorded.result: 39

[a] O=C1c2ccccc2-c2ccc(OCCN3CCCCC3)cc21
[b] CC(C)NC(=O)OC1c2ccccc2-c2ccc(OCCN3CCCCC3)cc21 (configuration not stated)
Prompt: Would you mind telling me which has the lower recorded inhibition between a and b ? API: response body contains the label of the selected item.
Response: b
(b: 20%, a: 47%)

[A] CO/N=C1\c2ccccc2-c2ccc(OCCN(C)C)cc21
[B] c1ccc2c(c1)-c1ccc(OCCN3CCCCC3)cc1C2N1CCOCC1 (configuration not stated)
Prompt: Out of A and B , name the one with the higher inhibition. Write the label of whichever entry you select.
Response: A
(A: 27%, B: 15%)
